assay_target: UniProtKB P25779
Sequence (P25779 whole entry): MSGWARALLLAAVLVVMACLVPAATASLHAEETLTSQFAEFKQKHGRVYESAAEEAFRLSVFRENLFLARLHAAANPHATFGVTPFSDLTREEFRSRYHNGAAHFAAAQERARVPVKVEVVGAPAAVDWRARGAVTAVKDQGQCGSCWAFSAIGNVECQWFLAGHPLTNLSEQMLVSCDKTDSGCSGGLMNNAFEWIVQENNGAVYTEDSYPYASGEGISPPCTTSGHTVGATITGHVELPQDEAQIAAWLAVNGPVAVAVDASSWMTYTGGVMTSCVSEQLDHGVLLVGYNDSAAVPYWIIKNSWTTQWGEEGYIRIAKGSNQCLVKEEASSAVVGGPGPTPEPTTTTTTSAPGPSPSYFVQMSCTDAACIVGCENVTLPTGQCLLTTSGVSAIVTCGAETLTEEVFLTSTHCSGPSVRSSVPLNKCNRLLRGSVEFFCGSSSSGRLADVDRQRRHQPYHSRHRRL
assay_comment: Trypanosoma cruzi cruzipain peptidase activity assay (Ki)
Type: biochemical
cond: read-out: Ki, inhibitors of cruzain and cruzipains
# Ki annotations
result_type: Ki

>>> df
                           substance_smiles  obs_value
0  CC(C)C[C@H](NC(=O)C(c1ccccc1)c1ccccc1)C(=O)N1CC[C@@H]2[C@H]1C(=O)CN2C(=O)c1csc2ccccc12     < 5 µM
1  CC(C)C[C@H](NC(=O)c1ccc(N(C)C)cc1)C(=O)N1CC[C@@H]2[C@H]1C(=O)CN2C(=O)c1ccc(C(F)(F)F)cc1     < 5 µM
2  CC(C)C[C@H](NC(=O)c1ccc(N(C)C)cc1)C(=O)N1CC[C@@H]2[C@H]1C(=O)CN2C(=O)c1cccc[n+]1[O-]     < 5 µM
